Answer each item with its documented activity change, negative = inhibition.
Assay: NFAT Signaling Pathway (AID 444);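 further: carbachol stimulus at about its EC50 of 1 µM final; on the % scale 0 is the no-effect control and ±100 the full control effect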
Settings: Jurkat NFAT-bla M1, carbachol, beta-lactamase ratio, 5 h; at 17.2 µM (top of the series) unless noted
Procedure: NCGC Assay Overview: The nuclear factor of activated T cells (NFAT) family of transcription factors has been found primarily in most immune system cells and some other non-immune cells. NFAT plays the immunomodulatory role, primarily in T-cell activation and differentiation. […] NCGC Assay Protocol Summary: The cells were prepared in RPMI 1640 medium containing 0.1% dialyzed FBS and 25 mM HEPES at 1.6 x 10^6cell/ml. […] The %Activity was determined from the ratio of 460nm/530nm. […]
Results filed as inconclusive are left out.
One number for each entry, in %.

Requested field: activity change, negative = inhibition. Item: `CCCCOc1ccccc1P(=O)(O)CP(=O)(c1ccccc1)c1ccccc1`
-17

Kindly give each listed record's activity change, negative = inhibition.
1. CSc1nnc(C)c(=O)[nH]1
2. COC(=O)c1[nH]c2cc(OC)ccc2c1NC(=O)CN1CCC(C(N)=O)CC1
3. CN(C=C1C(=O)CC(C)(C)CC1=O)CCN1CCNCC1
4. CCOC(=O)C(NC=O)(NC(C)(C)C)C(=O)OCC
5. CC/C(=N\O)c1ccc(OC)c(OC)c1

1: -8.38; 2: -2.98; 3: -19.2; 4: 4.66; 5: 2.19

====

Tested on: 3D7
Experiment: qHTS profiling for inhibitors of Plasmodium falciparum proliferation (AID 504749); further: nearly all actives have a fitted effect of over 60% in size
Settings: P. falciparum in erythrocytes, SYBR Green DNA, 72 h; series mostly up to 28.7 µM
Results filed as inconclusive are left out. The source made the active and inactive calls. The call rests on the fitted dose curve; in most records, active means well fitted inhibition curve with a large enough effect; inconclusive means small, poorly fitted or top-dose-only effect; inactive means flat fitted curve, though single readings scatter.
Returns: one label drawn from active, inactive

GET /call?item= Nc1nc2[nH]cc(CCc3ccc(C(=O)NC(CCC(=O)O)C(=O)O)cc3)c2c(=O)[nH]1 (stereo not drawn) returns the recorded outcome of this test.
active

GET /call?item= CCC(=O)OC1C(N(C)C)CC(C)O[C@H]1O[C@H]1[C@H](C)[C@@H](O[C@H]2CC(OC)[C@@H](O)C(C)O2)[C@H](C)C(=O)O[C@@H](CC)[C@](C)(O)[C@@H](O)[C@H](C)C(=O)[C@@H](C)C[C@]1(C)O (stereo partly drawn) returns the recorded outcome of this test.
inactive

Now consider a different compound.
GET /call?item= O=C1Oc2ccccc2C(=O)C1C(CC(O)c1ccc(-c2ccc(Br)cc2)cc1)c1ccccc1 (stereo not drawn) returns the recorded outcome of this test.
inactive

====

Assay: qHTS profiling for inhibitors of Plasmodium falciparum proliferation (AID 504749); further: nearly all actives have a fitted effect of over 60% in size;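 on activity, negative = inhibition: 0% = DMSO vehicle and full inhibition = artemisinin control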
Settings: P. falciparum in erythrocytes, SYBR Green DNA, 72 h; at 28.7 µM (top of the series); parasite line B
Inconclusive results are not listed.
Observable: activity, negative = inhibition (%)
Numbers only, in %.

Requested field: activity, negative = inhibition. Item: `C#C[C@@]1(O)CC[C@@H]2[C@H]3CCC4=C/C(=N\O)CC[C@H]4[C@@H]3CC[C@]21CC`
-2.2

Requested field: activity, negative = inhibition. Item: `O=C1CC[C@H](C(=O)N[C@@H]2C[C@H]2c2ccccc2)N1`
18.1

Requested field: activity, negative = inhibition. Item: CC(CCC(=O)O)C1CCC2C3C(=O)C[C@@H]4CC(=O)CC[C@@]4(C)C3CC(=O)[C@]12C (stereo not given in full)
1.51

Requested field: activity, negative = inhibition. Item: CC(C)CCCC(C)C1CC(=O)C2=C3CCC4CC(O)CCC4(C)C3CCC21C (stereo not given)
-0.553

// next entry
Requested field: activity, negative = inhibition. Item: `O=C1[C@@H]2C[C@@H]3C[C@H]1C[C@@](O)(C3)C2`
11.7

====

Test system: CP238
Assay: qHTS profiling for inhibitors of Plasmodium falciparum proliferation (AID 504749); further: nearly all actives have a fitted effect of over 60% in size
Conditions: P. falciparum in erythrocytes, SYBR Green DNA, 72 h; series mostly up to 28.7 µM
Results filed as inconclusive are left out. Activity calls are given as the source filed them. Calls come from the whole dose curve; as a rule, active = well fitted inhibition curve with a large enough effect; inconclusive = small, poorly fitted or top-dose-only effect; inactive = flat fitted curve, though single readings scatter.
Returns: one label drawn from active, inactive

GET /call?item= `C[C@H](O)[C@@H]1C(=O)N2C(C(=O)O)=C(SCCN=CN)C[C@@H]12` returns the recorded outcome of this test.
inactive

Further cases:
GET /call?item= C=C1C(n2cnc3c(=O)[nH]c(N)nc32)C[C@H](O)[C@H]1CO (stereo not given in full) returns the recorded outcome of this test.
inactive

GET /call?item= COc1cccc(OC)c1C(=O)NC1C(=O)N2C1SC(C)(C)C2C(=O)O (stereo not given) returns the recorded outcome of this test.
inactive

GET /call?item= Nc1nc(Cl)nc2c1ncn2[C@@H]1O[C@H](CO)[C@H](O)C1F (stereo not given in full) returns the recorded outcome of this test.
inactive

GET /call?item= COC1CC2CCC(C)[C@](O)(O2)C(=O)C(=O)N2CCCCC2C(=O)OC(C(C)CC2CCC(O)C(OC)C2)CC(=O)C(C)/C=C(/C)C(O)C(OC)C(=O)C(C)CC(C)C=CC=C/C=C\1C (stereo not given in full) returns the recorded outcome of this test.
active

GET /call?item= CO[C@H]1OC2O[C@@]3(C)CC[C@H]4[C@H](C)CC[C@@H]([C@H]1C)[C@@]24OO3 (stereo not given in full) returns the recorded outcome of this test.
active

====

Experiment: AP1 Signaling Pathway (AID 357);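 further: ME-180 reporter cells stimulated with EGF at its EC50 level; on the % scale 0 is the no-effect control and ±100 the full control effect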
Settings: ME-180 (cervical carcinoma) AP-1-bla reporter, EGF-induced, beta-lactamase ratio, 5 h; at 17.2 µM (top of the series) unless noted
Results filed as inconclusive are left out. Active and inactive are the calls of the source. Calls come from the whole dose curve; as a rule, active = well fitted curve in either direction with a large enough effect (not every such curve was filed as active); inconclusive = small, poorly fitted or top-dose-only effect, or another doubt; inactive = flat fitted curve, though single readings scatter.
Observable: activity change, negative = inhibition

Sample records with activity change, negative = inhibition:
Requested field: activity change, negative = inhibition. Item: CCOC(=O)C(C)Oc1ccc2c(C)cc(=O)oc2c1C(C)=O (stereo unspecified)
3.53% (inactive)

Requested field: activity change, negative = inhibition. Item: `CC1(C)CC(=O)C(CCCN2C(=O)c3ccccc3C2=O)C(=O)C1`
8.1% (inactive)

Requested field: activity change, negative = inhibition. Item: `CC(C)Oc1ccc(C(=O)CCN2CCCCC2)cc1`
-9.61% (inactive)

Requested field: activity change, negative = inhibition. Item: CCOc1cccc(C2C(C#N)=C(N)Oc3cc(C)oc(=O)c32)c1OCC (stereo unspecified)
-17.6% (inactive)

Requested field: activity change, negative = inhibition. Item: `Cc1c(NS(=O)(=O)c2cccc3nsnc23)c(=O)n(-c2ccccc2)n1C`
16.3% (inactive)

Requested field: activity change, negative = inhibition. Item: `Cc1nc(NCc2ccccc2)c(C(N)=O)c2c1COC(C)(C)C2`
1.8% (inactive)

Requested field: activity change, negative = inhibition. Item: `NC(=O)/C(=C\c1ccncc1)c1cccc2ccccc12`
-11.2% [at 7.69 µM] (inactive)

Requested field: activity change, negative = inhibition. Item: `CCOC(=O)C(C(=O)OCC)N(C#N)c1nc(SC)nc(N(C)C)n1`
-8.06% (inactive)

Kindly give each listed record's activity change, negative = inhibition.
1. CCOc1ccc(NC(=O)CSC2=C(C#N)C(c3ccc4c(c3)OCO4)CC(=O)N2)cc1 (stereo unspecified)
2. Cc1cc(C)n(-c2ncnc3sc(C)c(C)c23)n1
3. CC1(C)Cc2nc(NCCCO)c(C#N)cc2CO1
4. O=C(Nc1ccc2c(c1)OCCO2)c1ccc(Br)o1
5. Nc1nnc(CC2=CCCCC2)s1
6. COc1ccc(OCC(=O)OCCN(C)C)cc1
7. C=CCOc1nc2c(c(=O)n(C)c(=O)n2C)n1Cc1ccc(Cl)cc1Cl
8. CCCCOC(=O)c1ccc(NC(=O)CSc2nncn2C)cc1

1: -17.2% (inactive); 2: -15.7% (inactive); 3: -6.96% (inactive); 4: -1.9% (inactive); 5: 1.59% (inactive); 6: 7.78% (inactive); 7: 4.26% (inactive); 8: 6.24% (inactive)

====

Target: Glucocorticoid receptor (Homo sapiens)
Assay: qHTS assay for small molecule antagonists of glucocorticoid receptor signaling (AID 588533);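 further: cells stimulated with 2 nM dexamethasone as agonist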
Conditions: HeLa MMTV-bla, GRE beta-lactamase ratio, antagonist mode, 18 h; series mostly up to 76.8 µM
Records with an inconclusive call do not appear. The source made the active and inactive calls. The call rests on the fitted dose curve; in most records, active means well fitted inhibition curve with a large enough effect in the signal ratio, with a control signal flat (not every such curve was filed as active); inconclusive means small, poorly fitted or top-dose-only effect, or effect the other way, or a change in a side signal; inactive means flat fitted curve, though single readings scatter; the % refers to the signal ratio.
Returns: one label drawn from TRUE = active, FALSE = inactive

Some solved entries appear below for comparison.
GET /call?item= `Cc1ccc(S(=O)(=O)Oc2ccc(N=Nc3ccc(-c4ccc(N=Nc5c(O)ccc6cc(S(=O)(=O)O)cc(S(=O)(=O)O)c56)c(C)c4)cc3C)cc2)cc1` returns the recorded outcome of this test.
FALSE

GET /call?item= `Cc1cccc(O)c1C` returns the recorded outcome of this test.
FALSE

GET /call?item= `O=C=Nc1ccc(Cc2ccc(N=C=O)cc2)cc1` returns the recorded outcome of this test.
FALSE

GET /call?item= `CO[C@H]1/C=C/O[C@@]2(C)Oc3c(C)c(O)c4c(O)c(c5c(c4c3C2=O)NC2(CCN(CC(C)C)CC2)N=5)=NC(=O)/C(C)=C\C=C\[C@H](C)[C@H](O)[C@@H](C)[C@@H](O)[C@@H](C)[C@H](OC(C)=O)[C@@H]1C` returns the recorded outcome of this test.
FALSE

GET /call?item= `O=Cc1ccc(Cl)c(Cl)c1` returns the recorded outcome of this test.
FALSE

Now consider a different compound.
GET /call?item= CCC(C)Nc1ccc(NC(C)CC)cc1 (stereo unspecified) returns the recorded outcome of this test.
TRUE
